Taken from ChEMBL document CHEMBL1201862.

# Tested on: HOP-62
# ASSAY_OVERVIEW: NCI tumour cell line growth inhibition, 48 h
The source made the active and inactive calls. Rule as the data show it: active = GI50 up to about 1.1 µM and inactive = higher.
Kindly supply the reported GI50 values for the records listed here.

For HOP-62, provide GI50 of O=C1CCCNn2c(nc3ncccc3c2=O)N1 please.
> 100 µM (inactive)

Next: O=C(O)CP(=O)(O)O
> 100 µM (inactive)

Next: O=S1(=O)C[C@@H](NCc2ccccc2)[C@H](NCc2ccccc2)C1
37.4 µM (inactive)

Next: CC1CN=C(N(C)C(=O)Nc2ccc(Cl)c(Cl)c2)S1 (configuration not stated)
21.8 µM (inactive)

Next: N#Cc1c(C#N)c(-c2cccc([N+](=O)[O-])c2)n(-c2ccccc2)c1N
49.4 µM (inactive)

Next: Cc1cc2c(cc1C)OC(=O)CC2
> 100 µM (inactive)

Next: O=C1OC(c2ccccc2)=N/C1=C\c1ccc(Br)cc1
> 100 µM (inactive)
